- protocol: LNCaP cell loss by flow event count, confirmation, cytotoxicity control for prostate differentiation activator project, single point (AID 1076);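 further: counts scatter-gated live cells after medium removal discards detached dead cells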
- reported_conditions: flow cytometry event count, 4 d, event count, at 10 µM, stronger effect = lower value
Mark True for cell event count under 200, False if at or over.

# count of solved cases: 2
COc1ccc(CCNC(=O)C2CCCN(Cc3nc(-c4cccc(Cl)c4)oc3C)C2)cc1OC (configuration not stated) :: False
Cn1c(=O)cc(OCC(=O)NCCCN2CCN(c3cccc(Cl)c3)CC2)c2ccccc21 :: False

Consider the compound COc1ccc(CCNC(=O)C2CCCN(Cc3nc(-c4ccccc4C)oc3C)C2)cc1OC (configuration not stated) . Is its cell event count strictly less than 200?
True

Consider the compound CCOC(=O)C1CCCN(C(=O)Cn2cccc2C(=O)c2ccccc2)C1 (configuration not stated) . Is its cell event count strictly less than 200?
True

Consider the compound CCn1c(=O)cc(OCC(=O)NCCCN2CCN(c3cccc(Cl)c3)CC2)c2ccccc21 . Is its cell event count strictly less than 200?
False

Consider the compound CN1CCN(CCCNC(=O)c2cc3c(-c4ccc(Cl)cc4)nn(C)c3s2)CC1 . Is its cell event count strictly less than 200?
True

Consider the compound COc1ccc(Cc2nc(-c3ccc(-n4cccc4)cc3)no2)cc1OC . Is its cell event count strictly less than 200?
True

Consider the compound O=C(Cn1ccc2ccccc2c1=O)NCCC(=O)N1CCN(c2cccc(C(F)(F)F)c2)CC1 . Is its cell event count strictly less than 200?
False

Consider the compound Cc1ccc(Oc2ccc(S(=O)(=O)N3CCOCC3)cc2C(N)=O)c(-n2nc3ccccc3n2)c1 . Is its cell event count strictly less than 200?
True

Consider the compound Cc1nc2c3cnn(-c4ccccc4)c3ncn2n1 . Is its cell event count strictly less than 200?
True

====

- protocol: LNCaP cell loss by flow event count, confirmation, cytotoxicity control for prostate differentiation activator project, single point (AID 1076)
- reported_conditions: flow cytometry event count, 4 d, event count, at 10 µM, stronger effect = lower value
metric_name: cell event count
Note: the reply should be a number with no unit written.

Example cases with answers are listed next.
Cc1ccccc1-c1nc(CN2CCCC(C(=O)NCCCN3CCOCC3)C2)c(C)o1 (stereo unspecified) :: 175
CN(CC(=O)Nc1ccc2c(c1)OCCO2)S(=O)(=O)c1cccc2cccnc12 :: 156
CCN1CCCC1CNC(=O)c1cc2c(-c3ccc(Cl)cc3)nn(C)c2s1 (stereo unspecified) :: 88.5
COc1ccc(C)cc1NC(=O)CCC(=O)Nc1ccc2nc(N3CCN(C)CC3)cc(C)c2c1 :: 369
CCOC(=O)N1CCN(C(=O)Cc2ccc(-n3c(=O)[nH]c4ccccc4c3=O)cc2)CC1 :: 265

Note cell event count for the compound shown: O=C(CCN1C(=O)COc2ccccc21)NCCCN1CCN(c2ccc(F)cc2)CC1
146

Note cell event count for the compound shown: O=C(O)C1CCCCC1C(=O)Nc1cnn(Cc2ccccc2)c1 (stereo unspecified)
66.5

Note cell event count for the compound shown: CN1CCN(c2cc3c(c4c2[nH]c2ccccc24)C(=O)CC(C)(C)C3)CC1
231

Note cell event count for the compound shown: COC(=O)C1=C(C)N=c2s/c(=C/c3cccs3)c(=O)n2C1c1cccs1 (stereo unspecified)
320

Note cell event count for the compound shown: Cc1oc(-c2ccccc2F)nc1CN1CCC(C(=O)NC2CC2)CC1
496

Note cell event count for the compound shown: COc1cccc(-c2cc(C(=O)N3CCN(C(c4ccccc4)c4ccccc4)CC3)no2)c1
402

Note cell event count for the compound shown: Cc1nc2nc(C)c(CCC(=O)NCCCN3CCN(c4cccc(Cl)c4)CC3)c(C)n2n1
61

Note cell event count for the compound shown: COc1ccc(-c2noc(CCC(=O)NCCCN3CCC(Cc4ccccc4)CC3)n2)cc1
51

Note cell event count for the compound shown: COc1ccc(Nc2nc(N)nc(CN3CCC(Cc4ccccc4)CC3)n2)cc1
7.5

Note cell event count for the compound shown: CCOC(=O)c1[nH]c(C)c(C(=O)N2CCc3ccccc32)c1C
67

Note cell event count for the compound shown: CCOC(=O)C1CCN(S(=O)(=O)c2ccc(-c3nc4ccccc4s3)s2)CC1
136

Note cell event count for the compound shown: COc1cc2c(C(=O)NCCCN3CCN(c4cccc(Cl)c4)CC3)cn(C)c(=O)c2cc1OC
230

Note cell event count for the compound shown: COc1ccccc1CNC(=O)C1CCN(Cc2nc(-c3cccc(Cl)c3)oc2C)CC1
158

Note cell event count for the compound shown: CCc1ccc(-c2nc(CN3CCC(C(=O)N4CCN(c5ccccn5)CC4)CC3)c(C)o2)cc1
212

Note cell event count for the compound shown: O=C(NCCCN1CCN(c2cccc(Cl)c2)CC1)c1ccc(N2CCCC2=O)cc1
171

Note cell event count for the compound shown: COc1ccc(-c2cc(-c3ccc(F)cc3)nc(N3CCN(C)CC3)n2)cc1
118

Note cell event count for the compound shown: CC(=O)c1cccc(NC2c3ccccc3C(=O)N2Cc2ccc3c(c2)OCO3)c1 (stereo unspecified)
281

Note cell event count for the compound shown: CCN1CCN(c2ncc(C(=O)Nc3cc(Cl)c(OC)cc3OC)c3ccccc23)CC1
301

Note cell event count for the compound shown: Cc1cc(NC(=O)CSc2nnc(Cn3c(=O)sc4ccccc43)n2-c2ccccc2C)no1
121

Note cell event count for the compound shown: O=C(CCCCCn1c(=O)[nH]c2ccccc2c1=O)NCCCN1CCN(c2ccccc2F)CC1
336

Note cell event count for the compound shown: Cc1cc2c(=O)n(CC(=O)N3CCN(c4ccccc4)CC3)cnc2s1
170

Note cell event count for the compound shown: Cc1ccccc1-c1nc(CN2CCC(C(=O)NCCCN3CC(C)CC(C)C3)CC2)c(C)o1 (stereo unspecified)
102

Note cell event count for the compound shown: COc1ccccc1NC(=O)c1nc[nH]c1C(=O)Nc1ccccc1OC
257

Note cell event count for the compound shown: COc1ccc(CN2C(=O)C(O)(CC(=O)c3c(C)n[nH]c3C)c3ccccc32)cc1OC (stereo unspecified)
248

Note cell event count for the compound shown: CCOC(=O)CSc1nnc(CNC(=O)c2ccccc2OC)n1-c1ccc(OC)cc1
156

Note cell event count for the compound shown: Cc1ccc(C)c2[nH]c(=O)c(CN(CCN3CCCC3)C(=O)Nc3cccc(Cl)c3)cc12
97

====

- protocol: LNCaP cell loss by flow event count, confirmation, cytotoxicity control for prostate differentiation activator project, single point (AID 1076);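 further: counts scatter-gated live cells after medium removal discards detached dead cells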
- reported_conditions: flow cytometry event count, 4 d, at 100 µM, stronger effect = lower value
metric_name: cell event count
Note: the reply should be a number with no unit written.

Note cell event count for the compound shown: CCN1CCCC1CNC(=O)c1cc2c(-c3cccc(OC)c3)nn(C)c2s1 (stereo not given)
25

Note cell event count for the compound shown: COc1ccc(-n2nnnc2SCC(=O)c2ccc(O)c(O)c2)cc1
9

Note cell event count for the compound shown: Cc1ccc2c(c1)c1c(n2CC(O)Cn2c(C)nc3ccccc32)/C(=N\O)CCC1 (stereo not given)
16

Note cell event count for the compound shown: CCN(CC)CCCNC(=O)c1cc2c(-c3ccc(Cl)cc3)nn(C)c2s1
13

Note cell event count for the compound shown: Cc1ccccc1-c1nc(CN2CCC(C(=O)NCc3cccnc3)CC2)c(C)o1
268

====

- protocol: LNCaP cell loss by flow event count, confirmation, cytotoxicity control for prostate differentiation activator project, single point (AID 1076);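 further: counts scatter-gated live cells after medium removal discards detached dead cells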
- reported_conditions: flow cytometry event count, 4 d, at 100 µM, stronger effect = lower value
Mark class 1 for cell event count under 30, class 0 if at or over.

O=C(NCCCN1CCN(c2ccccc2F)CC1)C1CCCN(S(=O)(=O)c2cnc[nH]2)C1 (stereo not given) :: class 0
Cn1c(=O)cc(SCC(=O)NCCCN2CCN(c3ccccc3F)CC2)c2ccccc21 :: class 0
COc1ccccc1NC(=O)c1nc[nH]c1C(=O)Nc1ccccc1OC :: class 0
Cn1nc(-c2ccc(Cl)cc2)c2cc(C(=O)NCCCN3CCOCC3)sc21 :: class 0

Consider the compound Cn1c(=O)cc(OCC(=O)NCCCN2CCN(c3cccc(Cl)c3)CC2)c2ccccc21 . Is its cell event count strictly less than 30?
class 1

====

- protocol: LNCaP cell loss by flow event count, confirmation, cytotoxicity control for prostate differentiation activator project, single point (AID 1076);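 further: counts scatter-gated live cells after medium removal discards detached dead cells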
- reported_conditions: flow cytometry event count, 4 d, at 100 µM
Activity calls are given as the source filed them.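 How the source made its calls: active means cell event count below 40, meaning activity score above 60 where score is 100 minus count; inactive means the rest.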
Output constraint: value belongs to active, inactive

COc1ccc(-c2cc(C(=O)NCc3ccc(Cl)cc3)no2)cc1OC :: inactive
Cc1oc(-c2ccc(Cl)cc2)nc1CN1CCCC(C(=O)NCCCN2CCCC2=O)C1 (stereo not drawn) :: inactive
COc1ccc(Nc2nc(N)nc(CN3CCC(Cc4ccccc4)CC3)n2)cc1 :: active
Oc1c(CN2CCCCC2)cc(COCc2ccccc2)c2cccnc12 :: inactive

Per the records of this test, what outcome belongs to COc1ccc(-n2cc(-c3ccccc3)c3c(N4CCN(CCO)CC4)ncnc32)cc1 ?
inactive

Per the records of this test, what outcome belongs to COc1ccc2cc3c(N)nn(C(=O)Cc4ccccc4OC)c3nc2c1 ?
inactive

Sourced from PubChem BioAssay AID1076
